- Condition info: 303.15 K; 100 kPa; Liquid; Frequency=3 MHz; Single path-length method
Readout label: speed of sound (m/s)
Kindly provide the numeric value in m/s only, without the unit symbol.

> print(dat)
                       compound  measurement.units  result.number
1                     CCCCNCCCC                m/s         1220.3
2  CCCC(C)O (centres undefined)                m/s         1214.1

query: Value lookup for speed of sound; key = CCC(C)O (centres undefined)
result: 1194.1

query: // query speed of sound value for entry CC(C)NC(C)C
result: 1071.1

###

- Condition info: 308.15 K; 100 kPa; Liquid; Vibrating tube method
Readout label: mass density (kg/m3)
Number only, in kg/m3; omit the unit.

Consider the following illustrative entries.
> print(dat)
                       compound  measurement.units  result.number
1                     CCCCNCCCC              kg/m3        747.268
2                   CC(C)NC(C)C              kg/m3        702.661
3  CCCC(C)O (centres undefined)              kg/m3         797.08

Could you now look at the following compound, please?
query: Can you share its mass density? I mean this compound: CCC(C)O (centres undefined)
result: 794.363

###

- Condition info: 298.15 K; 100 kPa; Liquid; Vibrating tube method
Readout label: mass density (kg/m3)
Your answer should be a plain number; it is taken to be in kg/m3.

Use the examples below as a reference point.
> print(dat)
                                   compound  result.number
1                  CCCCNCCCC [dibutylamine]         755.48
2  CCC(C)O (centres undefined) [butan-2-ol]        802.847
3            CC(C)NC(C)C [diisopropylamine]        712.441

query: Any idea what mass density was measured for CCCC(C)O (centres undefined) [pentan-2-ol] ?
result: 805.37

###

- Condition info: 308.15 K; 100 kPa; Liquid; Frequency=3 MHz; Single path-length method
± gives the expanded uncertainty stated by the source.
Readout label: speed of sound
Answer format: value, then unit.

Solved entries (count: 3):
> print(dat)
                       compound            result
1  CCCC(C)O (centres undefined)  1195.7 ± 6.5 m/s
2                     CCCCNCCCC  1200.6 ± 6.3 m/s
3   CCC(C)O (centres undefined)    1176 ± 6.2 m/s

Okay, now this compound:
query: What value of measured speed of sound is listed for CC(C)NC(C)C ?
result: 1043.5 ± 6.3 m/s

###

- Condition info: 298.15 K; 100 kPa; Liquid; Frequency=3 MHz; Single path-length method
Readout label: speed of sound (m/s)
// return numeric value only (unit: m/s, not printed)

Recorded results for 3 compounds are shown here.
> print(dat)
                       compound   readout.label  measurement.units  result.number
1                   CC(C)NC(C)C  speed of sound                m/s         1093.8
2   CCC(C)O (centres undefined)  speed of sound                m/s         1212.1
3  CCCC(C)O (centres undefined)  speed of sound                m/s         1232.4

Read the next record carefully.
query: Could you tell me which speed of sound is on file for CCCCNCCCC ?
result: 1240.1

Origin of measurements: the NIST ThermoML archive (doi:10.1016/j.jct.2018.12.012)
